Assign viability to each entry below.
Experiment: drug combination growth inhibition, ovarian cancer – cell-based, oncology-focused library, rucaparib conditional, profiling panel (AID 1508598)
Conditions: patient-derived ovarian cancer cells, CellTiter-Glo viability, 144 h; at 1.25 µM; OCI-C5x cells; with rucaparib 10 µM; stronger effect = lower value; 100% = cells with rucaparib alone
One number for each entry, in %.

// solved cases for viability follow
Compound | viability [%]
CCOc1cc2ncc(C#N)c(Nc3ccc(F)c(Cl)c3)c2cc1NC(=O)/C=C/CN(C)C | 17.6
NC1(c2ccc(-c3nc4ccn5c(=O)[nH]nc5c4cc3-c3ccccc3)cc2)CCC1 | 107
CC[C@H](Nc1ncnc2nc[nH]c12)c1nc2cccc(F)c2c(=O)n1-c1ccccc1 | 103
c1ccc2c(CCNc3ccc(Nc4ccncc4)cc3)c[nH]c2c1 | 107
CCOc1ccn(-c2ccc(F)cc2)c(=O)c1C(=O)Nc1ccc(Oc2ccnc(N)c2Cl)c(F)c1 | 135

Hey, quick one: what's viability for each of these?
1. CNC(=O)c1ccc(C)c(-n2c(C)cc(OCc3ccc(F)cc3F)c(Br)c2=O)c1
2. COc1ccc(C2=NC(c3ccc(Cl)cc3)C(c3ccc(Cl)cc3)N2C(=O)N2CCNC(=O)C2)c(OC(C)C)c1 (stereo not drawn)
3. CC(=O)Nc1cccc(-n2c(=O)n(C3CC3)c(=O)c3c(Nc4ccc(I)cc4F)n(C)c(=O)c(C)c32)c1
4. Cn1cnc(=N)c2[nH]cnc21
5. C=C(c1ccc(C(=O)O)cc1)c1cc2c(cc1C)C(C)(C)CCC2(C)C
6. Cc1ccc(C(=O)N(CCCN)[C@@H](c2oc3cc(Cl)ccc3c(=O)c2Cc2ccccc2)C(C)C)cc1
7. Cc1ccc(S(=O)(=O)Nc2nc3ccccc3nc2Nc2ccc3nsnc3c2)cc1

A)
[91.7, 103, 45.5, 110, 98, 49.2, 115]

// each compound listed below needs its viability
1. Nc1nc(Nc2ccc(S(N)(=O)=O)cc2)nn1C(=O)c1c(F)cccc1F
2. CN(C)C/C=C/C(=O)Nc1cc2c(Nc3ccc(F)c(Cl)c3)ncnc2cc1O[C@H]1CCOC1
3. CS(=O)(=O)N1CCN(Cc2cc3nc(-c4cccc5[nH]ncc45)nc(N4CCOCC4)c3s2)CC1
4. O=C(Nc1cccc(Cl)c1)Nc1ncc(CCNc2ncnc3ccsc23)s1
5. Cn1cc(CNCC2CCN(c3ncc(C(=O)NO)cn3)CC2)c2ccccc21
6. COCCn1c2c([n+](Cc3cnccn3)c1C)C(=O)c1ccccc1C2=O
7. COc1ccc(-n2c(SCCCN3C(=O)c4cccc5cccc(c45)C3=O)nnc2-c2ccncc2)cc1
8. COc1cc(OC2CCN(C)CC2)ccc1Nc1ncc2c(n1)n(C1CCCC1)c(=O)n2C

A)
[82.9, 6.05, 125, 94.3, 3.87, 2.25, 129, 48.8]
